# Subject of test: ZFP SBS#1180 (synthetic)
# Sequence (chain, as listed by the source): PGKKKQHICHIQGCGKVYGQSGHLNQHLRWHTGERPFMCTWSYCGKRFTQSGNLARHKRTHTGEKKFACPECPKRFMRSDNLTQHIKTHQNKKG
# Assay procedure: EMSA
# Study conditions: tags: MBP fusion
Observable: pKd
# reply with the number alone; pKd is -log10 of concentration in mol/L

Looking for the measured pKd of AAGGAAAGA (dsDNA) DNA 1: AAGGAAAGA DNA 2: TCTTTCCTT , can you help? 8.32
